Numbers sourced from patent US8404738B2.

MEASURED TARGET: recombinant human HDAC8 (Homo sapiens, UniProt Q9BY41)
Construct: made in house; host or cells: insect cells
Sequence (Q9BY41 1-377): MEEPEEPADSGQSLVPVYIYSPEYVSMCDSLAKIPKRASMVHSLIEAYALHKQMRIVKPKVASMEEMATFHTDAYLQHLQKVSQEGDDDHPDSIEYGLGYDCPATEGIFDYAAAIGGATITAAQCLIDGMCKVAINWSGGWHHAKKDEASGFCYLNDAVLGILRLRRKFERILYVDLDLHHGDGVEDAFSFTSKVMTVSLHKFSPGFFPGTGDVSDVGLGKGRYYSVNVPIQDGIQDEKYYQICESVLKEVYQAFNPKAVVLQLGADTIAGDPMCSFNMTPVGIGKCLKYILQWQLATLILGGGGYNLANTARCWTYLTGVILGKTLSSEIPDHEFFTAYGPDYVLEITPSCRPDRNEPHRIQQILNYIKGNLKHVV
ASSAY COMMENT: HDAC8 inhibition: recombinant HDAC8 fluorometric assay
Assay type: biochemical
STATED CONDITIONS: recombinant human HDAC8, substrate Ac-Arg-His-Lys-Lys(ε-acetyl)-AMC; read-out: HDAC8 IC50
Hi! Could you tag entries with IC50 below 2000 nM as yes (1), and those at or above as no (0)? Much appreciated.

Record O=C(NO)c1ccc(NC2CCN(c3cc(F)cc(Cl)c3)C2=O)cc1 (stereo not drawn) : is its IC50 strictly below 2000 nM?
yes (1)

Next entry: CC(C)(C)c1ccc(N2CCC(Nc3ccc(C(=O)NO)cc3)C2=O)cc1 (stereo not drawn)
yes (1)

Next entry: O=C(NO)c1ccc(NC2CCN(S(=O)(=O)c3ccccc3)C2)cc1 (stereo not drawn)
no (0)

Next entry: O=C(NO)c1ccc(NC2CCN(c3ccc(Cl)cc3Cl)C2)cc1 (stereo not drawn)
no (0)

Next entry: CC1(Nc2ccc(C(=O)NO)cc2)C(=O)N(c2cccc(Cl)c2)c2ccccc21 (stereo not drawn)
yes (1)

Next entry: CC1(Nc2ccc(C(=O)NO)cc2)CCN(c2ccccc2)C1=O (stereo not drawn)
no (0)
